Kindly state EC50 (read off the curve) for each of the entries shown.
# TARGET_OR_SYSTEM: T1, human CD47, endogenous cell surface form (Raji, CCRF-CEM cells) (human, UniProt Q08722 19-323)
# T1 construct: the cells carry endogenous CD47; also called cell surface CD47
# ASSAY_METHOD_TEXT: flow cytometry on Raji cells, MFI (FL4)

Measured EC50 (read off the curve) of AB2.13 (antibody, V domains shown) VH: QMQLVQSGAEVKKTGSSVKVSCKASGFNIKDYYLHWVRQAPGQALEWMGWIDPDNGDTEYAQKFQDRVTITRDRSMSTAYMELSSLRSEDTAMYYCNAAYGSSSYPMDYWGQGTTVTV VL: NIQMTQSPSAMSASVGDRVTITCRARQGIHRYLSWFQQKPGKVPKILIYRANRLVDGVPSRFSGSGSGTEFTLTISSLQPEDFATYYCLQYDEFPYTFGGGTKVEIK : ~50 pM

Measured EC50 (read off the curve) of AB6.13 (antibody, V domains shown) VH: QMQLVQSGAEVKKTGSSVKVSCKASGFNIKDYYLHWVRQAPGQALEWMGWIDPDQGDTEYAQKFQDRVTITRDRSMSTAYMELSSLRSEDTAMYYCNAAYGSSSYPMDYWGQGTTVTV VL: NIQMTQSPSAMSASVGDRVTITCRARQGIHRYLSWFQQKPGKVPKILIYRANRLVDGVPSRFSGSGSGTEFTLTISSLQPEDFATYYCLQYDEFPYTFGGGTKVEIK : ~30 pM

Measured EC50 (read off the curve) of humanized antibody AB2.05 (human IgG1) (antibody, V domains shown) VH: QMQLVQSGAEVKKTGSSVKVSCKASGFNIKDYYLHWVRQAPGQALEWMGWIDPDNGDTEYAQKFQDRVTITRDRSMSTAYMELSSLRSEDTAMYYCNAAYGSSSYPMDYWGQGTTVTV VL: NIQMTQSPSAMSASVGDRVTITCKASQDIHRYLSWFQQKPGKVPKHLIYRANRLVDGVPSRFSGSGSGTEFTLTISSLQPEDFATYYCLQYDEFPYTFGGGTKVEIK : ~100 pM

Measured EC50 (read off the curve) of AB6.17 (antibody, V domains shown) VH: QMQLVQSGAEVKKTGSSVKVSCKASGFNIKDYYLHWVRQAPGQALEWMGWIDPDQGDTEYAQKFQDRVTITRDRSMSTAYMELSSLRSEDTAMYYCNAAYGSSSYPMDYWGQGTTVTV VL: NIQMTQSPSAMSASVGDRVTITCRARQGIHRYLSWFQQKPGKVPKLLIYRANRLVSGVPSRFSGSGSGTEFTLTISSLQPEDFATYYCLQYDEFPYTFGGGTKVEIK : ~200 pM

Measured EC50 (read off the curve) of chimeric 2A1 antibody (2A1-xi) (antibody, V domains shown) VH: EVQLQQSGAELVRSGASVKLSCTASGFNIKDYYLHWVKQRPEQGLEWIGWIDPDNGDTEFAPKFQGKATMTADTSSNTAYLQLSSLTSEDTAVYYCNAAYGSSSYPMDYWGQGTSVTV VL: DIKMTQSPSSLYASLGERVTITCKASQDIHRYLSWFQQKPGKSPKILIYRANRLVDGVPSRFSGSGSGQDYSLTISSLEYEDMGIYYCLQYDEFPYTFGGGTKLEIK : ~50 pM
